Entry source: PubChem BioAssay AID2060332

- Tested on: LG0567-F671-PDC multi-cell spheroid viability
- PROCEDURE TEXT: Anticancer human tumor LG0567-F671-PDC patient-derived lung adenocarcinoma cell line growth inhibition [IpAb]
- TEST PARAMETERS: second compound 1 µM; first compound 0.0316 µM; hits give low values

COMPOUND: Cc1nc(NC(=O)N2CCCC2C(N)=O)sc1-c1ccnc(C(C)(C)C(F)(F)F)c1 (stereo not given) + CC(C)NCC(C(=O)N1CCN(c2ncnc3c2C(C)CC3O)CC1)c1ccc(Cl)cc1
EXPERIMENTAL TARGET: LG0567-F671-PDC multi-cell spheroid viability
viability, T/C (%): 66.1
//
COMPOUND: Cn1ncc(Cl)c1-c1cc(C(=O)NC(CN)Cc2cccc(F)c2)sc1Cl (stereo not given) + CC(C)NCC(C(=O)N1CCN(c2ncnc3c2C(C)CC3O)CC1)c1ccc(Cl)cc1
EXPERIMENTAL TARGET: LG0567-F671-PDC multi-cell spheroid viability
viability, T/C (%): 71.1
//
COMPOUND: CCCS(=O)(=O)Nc1ccc(F)c(C(=O)c2c[nH]c3ncc(-c4ccc(Cl)cc4)cc23)c1F + CCN1CCN(Cc2ccc(Nc3ncc(F)c(-c4cc(F)c5nc(C)n(C(C)C)c5c4)n3)nc2)CC1
EXPERIMENTAL TARGET: LG0567-F671-PDC multi-cell spheroid viability
viability, T/C (%): 66.9
//
COMPOUND: COc1c(OCCCN2CCOCC2)ccc2c3n(c(=NC(=O)c4cnc(N)nc4)nc12)CCN3 + CCN1CCN(Cc2ccc(Nc3ncc(F)c(-c4cc(F)c5nc(C)n(C(C)C)c5c4)n3)nc2)CC1
EXPERIMENTAL TARGET: LG0567-F671-PDC multi-cell spheroid viability
viability, T/C (%): 56
//
COMPOUND: Cc1nc(NC(=O)N2CCCC2C(N)=O)sc1-c1ccnc(C(C)(C)C(F)(F)F)c1 (stereo not given) + CCN1CCN(Cc2ccc(Nc3ncc(F)c(-c4cc(F)c5nc(C)n(C(C)C)c5c4)n3)nc2)CC1
EXPERIMENTAL TARGET: LG0567-F671-PDC multi-cell spheroid viability
viability, T/C (%): 49.5
//
COMPOUND: CCCS(=O)(=O)Nc1ccc(F)c(C(=O)c2c[nH]c3ncc(-c4ccc(Cl)cc4)cc23)c1F + CC(C)NCC(C(=O)N1CCN(c2ncnc3c2C(C)CC3O)CC1)c1ccc(Cl)cc1
EXPERIMENTAL TARGET: LG0567-F671-PDC multi-cell spheroid viability
viability, T/C (%): 77.3
//
COMPOUND: Cn1nccc1Nc1nccc(-c2ccn(C(CO)c3ccc(Cl)c(F)c3)c(=O)c2)n1 (stereo not given) + CCN1CCN(Cc2ccc(Nc3ncc(F)c(-c4cc(F)c5nc(C)n(C(C)C)c5c4)n3)nc2)CC1
EXPERIMENTAL TARGET: LG0567-F671-PDC multi-cell spheroid viability
viability, T/C (%): 42.8
//
COMPOUND: Cn1nccc1Nc1nccc(-c2ccn(C(CO)c3ccc(Cl)c(F)c3)c(=O)c2)n1 (stereo not given) + CC(C)NCC(C(=O)N1CCN(c2ncnc3c2C(C)CC3O)CC1)c1ccc(Cl)cc1
EXPERIMENTAL TARGET: LG0567-F671-PDC multi-cell spheroid viability
viability, T/C (%): 62.4
//
COMPOUND: CC(C)n1nc(-c2ccc3oc(N)nc3c2)c2c(N)ncnc21 + CC(C)NCC(C(=O)N1CCN(c2ncnc3c2C(C)CC3O)CC1)c1ccc(Cl)cc1
EXPERIMENTAL TARGET: LG0567-F671-PDC multi-cell spheroid viability
viability, T/C (%): 57.9
//
COMPOUND: COc1c(OCCCN2CCOCC2)ccc2c3n(c(=NC(=O)c4cnc(N)nc4)nc12)CCN3 + CC(C)NCC(C(=O)N1CCN(c2ncnc3c2C(C)CC3O)CC1)c1ccc(Cl)cc1
EXPERIMENTAL TARGET: LG0567-F671-PDC multi-cell spheroid viability
viability, T/C (%): 41
//
COMPOUND: C=CC(=O)N1CCN(c2nc(=O)n(-c3c(C)ccnc3C(C)C)c3nc(-c4c(O)cccc4F)c(F)cc23)C(C)C1 (stereo not given) + CC(C)NCC(C(=O)N1CCN(c2ncnc3c2C(C)CC3O)CC1)c1ccc(Cl)cc1
EXPERIMENTAL TARGET: LG0567-F671-PDC multi-cell spheroid viability
viability, T/C (%): 13.8
//
COMPOUND: CC(C)n1nc(-c2ccc3oc(N)nc3c2)c2c(N)ncnc21 + CCN1CCN(Cc2ccc(Nc3ncc(F)c(-c4cc(F)c5nc(C)n(C(C)C)c5c4)n3)nc2)CC1
EXPERIMENTAL TARGET: LG0567-F671-PDC multi-cell spheroid viability
viability, T/C (%): 43.6
//
COMPOUND: C=CCn1c(=O)c2cnc(Nc3ccc(N4CCN(C)CC4)cc3)nc2n1-c1cccc(C(C)(C)O)n1 + CCN1CCN(Cc2ccc(Nc3ncc(F)c(-c4cc(F)c5nc(C)n(C(C)C)c5c4)n3)nc2)CC1
EXPERIMENTAL TARGET: LG0567-F671-PDC multi-cell spheroid viability
viability, T/C (%): 63.8
//
COMPOUND: C=CC(=O)N1CCN(c2nc(=O)n(-c3c(C)ccnc3C(C)C)c3nc(-c4c(O)cccc4F)c(F)cc23)C(C)C1 (stereo not given) + CCN1CCN(Cc2ccc(Nc3ncc(F)c(-c4cc(F)c5nc(C)n(C(C)C)c5c4)n3)nc2)CC1
EXPERIMENTAL TARGET: LG0567-F671-PDC multi-cell spheroid viability
viability, T/C (%): 18.6
//
COMPOUND: Cn1ncnc1[C@H]1c2n[nH]c(=O)c3cc(F)cc(c23)N[C@@H]1c1ccc(F)cc1 + CCN1CCN(Cc2ccc(Nc3ncc(F)c(-c4cc(F)c5nc(C)n(C(C)C)c5c4)n3)nc2)CC1
EXPERIMENTAL TARGET: LG0567-F671-PDC multi-cell spheroid viability
viability, T/C (%): 32.8

----------
- Tested on: LG0567-F671-PDC multi-cell spheroid viability
- PROCEDURE TEXT: Anticancer human tumor LG0567-F671-PDC cell line growth inhibition [IpAb];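 note: viability read after 7 days of drug exposure; 100% = DMSO vehicle control luminescence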
- TEST PARAMETERS: second compound 0.1 µM; first compound 0.03 µM; hits give low values
PROPERTY: viability, T/C (%)

MOLECULE: CC(=O)c1c(C)c2cnc(Nc3ccc(N4CCNCC4)cn3)nc2n(C2CCCC2)c1=O + CC(C)NCC(C(=O)N1CCN(c2ncnc3c2C(C)CC3O)CC1)c1ccc(Cl)cc1
RESULT VALUE: 69.5

MOLECULE: CC(C)(C)c1cnc(CSc2cnc(NC(=O)C3CCNCC3)s2)o1 + CC(C)NCC(C(=O)N1CCN(c2ncnc3c2C(C)CC3O)CC1)c1ccc(Cl)cc1
RESULT VALUE: 110

MOLECULE: Cn1cnc2c(F)c(Nc3ccc(Br)cc3Cl)c(C(=O)NOCCO)cc21 + CC(C)NCC(C(=O)N1CCN(c2ncnc3c2C(C)CC3O)CC1)c1ccc(Cl)cc1
RESULT VALUE: 36.4

----------
- System: LG0567-F671-PDC multi-cell spheroid viability
- PROCEDURE TEXT: Anticancer human tumor LG0567-F671-PDC cell line growth inhibition [IpAb];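 note: viability read after 7 days of drug exposure; 100% = DMSO vehicle control luminescence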
- TEST PARAMETERS: second compound 10 µM; first compound 0.0316 µM; hits give low values
PROPERTY: viability, T/C (%)

COMPOUND: C=CC(=O)N1CCN(c2nc(=O)n(-c3c(C)ccnc3C(C)C)c3nc(-c4c(O)cccc4F)c(F)cc23)C(C)C1 (stereo not given) + CC(C)NCC(C(=O)N1CCN(c2ncnc3c2C(C)CC3O)CC1)c1ccc(Cl)cc1
UNITS SYMBOL: %
RESULT VALUE: 13.5

COMPOUND: CCCS(=O)(=O)Nc1ccc(F)c(C(=O)c2c[nH]c3ncc(-c4ccc(Cl)cc4)cc23)c1F + CC(C)NCC(C(=O)N1CCN(c2ncnc3c2C(C)CC3O)CC1)c1ccc(Cl)cc1
UNITS SYMBOL: %
RESULT VALUE: 88.3

COMPOUND: C=CCn1c(=O)c2cnc(Nc3ccc(N4CCN(C)CC4)cc3)nc2n1-c1cccc(C(C)(C)O)n1 + CC(C)NCC(C(=O)N1CCN(c2ncnc3c2C(C)CC3O)CC1)c1ccc(Cl)cc1
UNITS SYMBOL: %
RESULT VALUE: 72.8

COMPOUND: COc1c(OCCCN2CCOCC2)ccc2c3n(c(=NC(=O)c4cnc(N)nc4)nc12)CCN3 + CC(C)NCC(C(=O)N1CCN(c2ncnc3c2C(C)CC3O)CC1)c1ccc(Cl)cc1
UNITS SYMBOL: %
RESULT VALUE: 39

COMPOUND: Cn1nccc1Nc1nccc(-c2ccn(C(CO)c3ccc(Cl)c(F)c3)c(=O)c2)n1 (stereo not given) + CC(C)NCC(C(=O)N1CCN(c2ncnc3c2C(C)CC3O)CC1)c1ccc(Cl)cc1
UNITS SYMBOL: %
RESULT VALUE: 60.1

COMPOUND: Cc1nc(NC(=O)N2CCCC2C(N)=O)sc1-c1ccnc(C(C)(C)C(F)(F)F)c1 (stereo not given) + CC(C)NCC(C(=O)N1CCN(c2ncnc3c2C(C)CC3O)CC1)c1ccc(Cl)cc1
UNITS SYMBOL: %
RESULT VALUE: 50.5

COMPOUND: Cn1ncc(Cl)c1-c1cc(C(=O)NC(CN)Cc2cccc(F)c2)sc1Cl (stereo not given) + CC(C)NCC(C(=O)N1CCN(c2ncnc3c2C(C)CC3O)CC1)c1ccc(Cl)cc1
UNITS SYMBOL: %
RESULT VALUE: 77.5

COMPOUND: CC(C)n1nc(-c2ccc3oc(N)nc3c2)c2c(N)ncnc21 + CC(C)NCC(C(=O)N1CCN(c2ncnc3c2C(C)CC3O)CC1)c1ccc(Cl)cc1
UNITS SYMBOL: %
RESULT VALUE: 37

COMPOUND: CC1(C)CCC(CN2CCN(c3ccc(C(=O)NS(=O)(=O)c4ccc(NCC5CCOCC5)c([N+](=O)[O-])c4)c(Oc4cnc5[nH]ccc5c4)c3)CC2)=C(c2ccc(Cl)cc2)C1 + CC(C)NCC(C(=O)N1CCN(c2ncnc3c2C(C)CC3O)CC1)c1ccc(Cl)cc1
UNITS SYMBOL: %
RESULT VALUE: 77.3

COMPOUND: Cn1ncnc1[C@H]1c2n[nH]c(=O)c3cc(F)cc(c23)N[C@@H]1c1ccc(F)cc1 + CC(C)NCC(C(=O)N1CCN(c2ncnc3c2C(C)CC3O)CC1)c1ccc(Cl)cc1
UNITS SYMBOL: %
RESULT VALUE: 49.6
